Data credit: ChEMBL document CHEMBL3826914

system: ABCB1; assay: Permeability from apical to basolateral side in dog MDCK2-MDR1 cells expressing ABCB1 at 5 uM after 30 mins in absence of compound 15 by LC-MS/MS analysis; format: ADME, cell-based, Canis lupus familiaris, MDCK-II; conditions: MDCK-MDR1, read-out: permeability
metric: Papp A→B at 0.5 h, 5 µM (×10⁻⁶ cm/s)
Field: numeric (×10⁻⁶ cm/s). Do not append units.

The examples below pair each entry with its known result.
S=C(c1ccc(C2=c3cc4c5c(c3[Se]c3c2cc2c6c3CCCN6CCC2)CCC[N+]=5CCC4)s1)N1CCCCC1.[Cl-] : 0.03
CN1CCC(C)(C)c2cc3c(cc21)[Se]c1cc2c(cc1=C3c1ccc(C(=O)N3CCCCC3)s1)C(C)(C)CC[N+]=2C.[Cl-] : 0.18
C[N+]1=c2cc3c(cc2C(C)(C)CC1)=C(c1ccc(C(=O)N2CCCCC2)s1)c1cc2c4c(c1[Se]3)CCCN4CCC2.[Cl-] : 0.14
C[N+]1=c2cc3c(cc2C(C)(C)CC1)=C(c1ccc(C(=S)N2CCCCC2)s1)c1cc2c4c(c1[Se]3)CCCN4CCC2.[Cl-] : 0.044
CN1CCC(C)(C)c2cc3c(cc21)[Se]c1cc2c(cc1=C3c1ccc(C(=S)N3CCCCC3)s1)C(C)(C)CC[N+]=2C.[Cl-] : 0.15

Switching to the query record.
Quick one: Papp A→B at 0.5 h, 5 µM for O=C(c1ccc(C2=c3cc4c5c(c3[Se]c3c2cc2c6c3CCCN6CCC2)CCC[N+]=5CCC4)s1)N1CCCCC1.[Cl-] ?
0.21
